The reported numbers originate from patent US9134313B2.

System Under Test: anti-DiAcSpm antibody Code No. NZW 2
Protocol Details: Cross-reactivity of affinity-purified anti-DiAcSpm antibody with urinary DiAcSpm analogues
Type: binding, rabbit
Experimental Context: cross-reactivity of antibody NZW 2 with each polyamine, DiAcSpm = 100
One threshold, 0.03%, splits the recorded KiDiAcSpm/Ki"s"(%) (1) values: lower ones are satisfied, equal or higher ones are not satisfied.

Field: example entries. Status: answers known.
CC(=O)NCCCNCCCCNCCCNC(C)=O = not satisfied
CC(=O)NCCCNCCCCNCCCN = not satisfied
CC(=O)NCCCCNCCCN = satisfied
CC(=O)NCCCCNCCCNC(C)=O = not satisfied

As a next step, examine the molecule that follows.
Lookup: Lab note: confirm whether the reported KiDiAcSpm/Ki"s"(%) (1) for this molecule is below 0.03%, equality not counting. molecule: `CC(=O)NCCCNCCCCN`
Found: not satisfied
